assay text: Quantitative High-Throughput drug screen in 47 multiple myeloma cell lines against the NCATS MIPE library collection: KMS12PE_JCRB cell viability assay (AID 1918972); also: nearly all actives have a fitted effect of over 30% in size; also: potency is read from the fitted curve at half-maximal effect;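 as to viability: 100% = DMSO only wells and 0% = wells with media alone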
condition notes: KMS12PE myeloma viability, CellTiter-Glo ATP, 48 h; series mostly up to 45.8 µM
Results filed as inconclusive are left out. Activity calls are given as the source filed them. Calls follow the shape of the dose curve; as a rule, active = well fitted cell-killing curve with a large enough effect; inconclusive = small, poorly fitted or top-dose-only effect, or effect the other way; inactive = no such curve, though single readings can be large or run the other way.
quantity name: Potency

Recorded Potency, per entry:
molecule: CNC(=O)c1ccc(N2C(=S)N(c3cnc(C#N)c(C(F)(F)F)c3)C(=O)C23CCC3)cc1F
assay result: 2960 nM (active)

molecule: O=C(O)c1ccc2cc(-c3ccc(O)c(C45CC6CC(CC(C6)C4)C5)c3)ccc2c1
assay result: 526 nM (active)

molecule: Cn1c(CNc2ccc(C(=N)N)cc2)nc2cc(C(=O)N(CCC(=O)O)c3ccccn3)ccc21
assay result: inactive

molecule: COc1ccc(C(=O)CC2(O)C(=O)Nc3c(Cl)ccc(Cl)c32)cc1 (centres undefined)
assay result: 1320 nM (active)

molecule: CC[C@H]1CN2CCc3cc(OC)c(OC)cc3[C@H]2C[C@@H]1C[C@@H]1NCCc2cc(OC)c(OC)cc21
assay result: 132 nM (active)

Give the measured Potency for CNc1nccc(-c2cccnc2Oc2cc(C(=O)Nc3cccc(C(F)(F)F)c3)ccc2C)n1
10500 nM (active)

Give the measured Potency for Cc1ccc(-c2ncn(-c3ccc(Nc4nccc(-c5cccc(N6CCOCC6)c5)n4)cc3)n2)cn1
59 nM (active)

Give the measured Potency for CN1c2cc(O)c(N=NC(N)=O)cc2CC1S(=O)(=O)O (centres undefined)
inactive

Give the measured Potency for COc1cccc2nc(-c3cccs3)nc(NN3C(=O)C=C(C)C3=O)c12
118 nM (active)

---

assay text: qHTS Screen of the MIPE 4.0 Collection Against Ewings Sarcoma (RDES) (AID 1259252); also: nearly all actives have a fitted effect of over 35% in size
condition notes: RD-ES Ewing sarcoma viability, CellTiter-Glo, 48 h; series mostly up to 45.8 µM
Results filed as inconclusive are left out. Active and inactive are the calls of the source. Calls follow the shape of the dose curve; as a rule, active = well fitted inhibition curve with a large enough effect; inconclusive = small, poorly fitted or top-dose-only effect; inactive = no such curve, though single readings can be large or run the other way.
The categories you may choose from are active, inactive

Worked set:
compound: CC(C)(C)NC(=O)[C@H]1CN(Cc2cccnc2)CCN1C[C@@H](O)C[C@@H](Cc1ccccc1)C(=O)N[C@H]1c2ccccc2C[C@H]1O
assigned class: active
//
compound: CC(=O)Nc1sc2c(c1-c1nc3ccccc3s1)CNC2
assigned class: active
//
compound: O=C(C=Cc1cccnc1)NCCCCC1CCN(C(=O)c2ccccc2)CC1
assigned class: active
//
compound: Cc1cc(Nc2cc(N3CCN(C)CC3)nc(Sc3ccc(NC(=O)C4CC4)cc3)n2)n[nH]1
assigned class: active
//
compound: CCn1cc(-c2ccnc3[nH]c(-c4cccc(CN(C)C)c4)cc23)c(-c2ccc(NC(=O)N(C)C)cc2)n1
assigned class: active
//
compound: CCOC(=O)C1=C(C)NC2=C(C(=O)CC(C)(C)C2)C1c1ccc(-c2ccccc2)cc1 (centres undefined)
assigned class: active
//
compound: CNC(=O)c1ccc(-c2cnc3ncc(Cc4ccc5ncccc5c4)n3n2)cc1F
assigned class: inactive
//
compound: CN(c1ncccc1CNc1nc(Nc2ccc3c(c2)CC(=O)N3)ncc1C(F)(F)F)S(C)(=O)=O
assigned class: active

Could you check what this test reported for CC(C)Nc1cc(C(F)(F)F)cc2nc(NC(=O)c3cccnc3)nn12 ?
active

---

assay text: Quantitative High-Throughput drug screen in 47 multiple myeloma cell lines against the NCATS MIPE library collection: OPM2_DSMZ cell viability assay (AID 1919872); also: nearly all actives have a fitted effect of over 30% in size
condition notes: OPM2 myeloma viability, CellTiter-Glo ATP luminescence, 48 h; series mostly up to 45.8 µM
Results filed as inconclusive are left out. Calls of active or inactive are those of the source. Calls follow the shape of the dose curve; as a rule, active = well fitted cell-killing curve with a large enough effect; inconclusive = small, poorly fitted or top-dose-only effect, or effect the other way; inactive = no such curve, though single readings can be large or run the other way.
The categories you may choose from are 1 = active, -1 = inactive

Worked set:
compound: O=C(O)c1ccc2c(c1)nc(Nc1cccc(Cl)c1)c1ccncc12
assigned class: 1
--
compound: C1Cc2[nH]nc(-c3nn[nH]n3)c2C1
assigned class: -1
--
compound: Nc1ccccc1NC(=O)c1ccc(CNC(=O)OCc2cccnc2)cc1
assigned class: 1
--
compound: Cn1cncc1[C@@](N)(c1ccc(Cl)cc1)c1ccc2c(c1)c(-c1cccc(Cl)c1)cc(=O)n2C
assigned class: 1
--
compound: CS(=O)(=O)c1ccc(-c2cnc(N)c(C(=O)Nc3ccccc3)n2)cc1
assigned class: -1
--
compound: Cc1cc(Nc2ncnc3ccc(-c4ccc(CNCCS(C)(=O)=O)o4)cc23)ccc1Oc1ccn2ncnc2c1
assigned class: 1
--
compound: c1ccc2c(CCNc3ccc(Nc4ccncc4)cc3)c[nH]c2c1
assigned class: -1
--
compound: Cc1ccc(CN2CCNCC2)cc1NC(=O)CNc1ccc(F)c(F)c1
assigned class: -1

Could you check what this test reported for COc1cc(C)c(Sc2cnc(NC(=O)c3ccc(CNC(C)C(C)C)cc3)s2)cc1C(=O)N1CCN(C(C)=O)CC1 (stereo not given) ?
1

Could you check what this test reported for COc1cccc2nc(-c3cccs3)nc(NN3C(=O)C=C(C)C3=O)c12 ?
1

Could you check what this test reported for COC(=O)C1=C(C)NC(C)=C(C(=O)OCCN2CCN(C(c3ccccc3)c3ccccc3)CC2)C1c1cccc([N+](=O)[O-])c1 (stereo not given) ?
-1

Could you check what this test reported for CN1CCC(CNc2ccc3ncc(-c4cccc(OC(F)(F)F)c4)n3n2)CC1 ?
1

Could you check what this test reported for C[C@H]1C[C@@H]2[C@@H]([C@@H](O)C[C@@]3(C)[C@H]2CC[C@]3(O)C(=O)CO)[C@@]2(C)C=CC(=O)C=C12 ?
-1

Could you check what this test reported for CCC[C@H](NC(=O)C(C#N)=Cc1cccc(Br)n1)c1ccccc1 ?
1

Could you check what this test reported for CC[C@H]1CN2CCc3cc(OC)c(OC)cc3[C@H]2C[C@@H]1C[C@@H]1NCCc2cc(OC)c(OC)cc21 ?
1

---

Test system: PA-1
assay text: Primary qHTS to identify gynecologic anti-cancer compounds using libraries of approved drugs and bioactive compounds (AID 1345084); also: nearly all actives have a fitted effect of over 55% in size
condition notes: Gynecologic cancer cell panel viability, ATPlite luminescence, 48 h; series mostly up to 57.5 µM
Inconclusive results are not listed. Activity calls are given as the source filed them. Calls follow the shape of the dose curve; as a rule, active = well fitted cell-killing curve with a large enough effect; inconclusive = small, poorly fitted or top-dose-only effect, or effect the other way; inactive = flat fitted curve, though single readings scatter.
The categories you may choose from are YES = active, NO = inactive

Worked set:
molecule: N#CCNC(=O)c1ccc(-c2ccnc(Nc3ccc(N4CCOCC4)cc3)n2)cc1
assigned class: YES
//
molecule: CN(C)Cc1c(C(=O)NCCOc2ccc(C(=O)NO)cc2)oc2ccccc12
assigned class: YES
//
molecule: O=c1c2ccccc2nc2n1CCc1c-2[nH]c2ccccc12
assigned class: NO
//
molecule: O=C1CCC[C@@H]2[C@H]3CCC[N+]4([O-])CCC[C@@H](CN12)[C@@H]34 (stereo not given in full)
assigned class: NO

Could you now look at the following molecule, please?
Could you check what this test reported for COc1cc2nccc(Oc3ccc(NC(=O)C4(C(=O)Nc5ccc(F)cc5)CC4)cc3)c2cc1OC ?
YES

---

Potency values, listed per item
assay text: qHTS of pediatric cancer cell lines to identify multiple opportunities for drug repurposing: Primary screen for RD cells (AID 1347104); also: potency is read from the fitted curve at half-maximal effect; nearly all actives have a fitted effect of over 55% in size
condition notes: RD rhabdomyosarcoma viability, CellTiter-Glo luminescence, 48 h; series mostly up to 46 µM
Results filed as inconclusive are left out. The source made the active and inactive calls. The call rests on the fitted dose curve; in most records, active means well fitted cell-killing curve with a large enough effect; inconclusive means small, poorly fitted or top-dose-only effect; inactive means flat fitted curve, though single readings scatter.

Give the measured Potency for COc1cc(=C2C=c3ccccc3=N2)[nH]c1=Cc1[nH]c(C)cc1C
2.96 µM (active)

Give the measured Potency for CC1(C)OC2=C(C(=O)c3ccccc3C2=O)[C@H](NCc2ccccc2)[C@H]1O
10.5 µM (active)

Give the measured Potency for C1=CCOCc2cc(ccc2OCCN2CCCC2)Nc2nccc(n2)-c2cccc(c2)OCC1
11.8 µM (active)

Give the measured Potency for COc1cc2c(Oc3ccc(-c4cnc(Nc5ccc(F)cc5)n(C)c4=O)cc3F)ccnc2cc1OCCCN1CCOCC1
9.35 µM (active)

Give the measured Potency for COc1ccc(-c2cc3c(C)nc(N)nc3n(C3CCC(OCCO)CC3)c2=O)cn1 (stereo not given)
0.187 µM (active)

---

assay text: qHTS of pediatric cancer cell lines to identify multiple opportunities for drug repurposing: Primary screen for MG 63 (6-TG R) cells (AID 1347105); also: potency is read from the fitted curve at half-maximal effect; nearly all actives have a fitted effect of over 50% in size
condition notes: MG 63 (6-TG R) viability, CellTiter-Glo, 48 h; series mostly up to 46 µM
Procedure: Drug repurposing or repositioning has been offered as a strategy for drug development in oncology programs. This approach has special potential for childhood cancers and other rare or orphan diseases, where the expected return on new drug development has been a disincentive to pharmaceuticals. […] We employed a titration-based paradigm (quantitative high-throughput screening or qHTS), where all compounds were tested at multiple concentrations for their effect on cell viability. […]
Records with an inconclusive call do not appear. The source made the active and inactive calls. Calls come from the whole dose curve; as a rule, active = well fitted cell-killing curve with a large enough effect; inconclusive = small, poorly fitted or top-dose-only effect; inactive = no such curve, though single readings can be large or run the other way.
The categories you may choose from are active, inactive

Could you check what this test reported for CC(C)c1ccc(Cn2ccc3c4c(N)nc(NC5CC5)nc4ccc32)cc1 ?
active

Could you check what this test reported for COC(=O)Nc1ccc(-c2nc(N3CCOCC3)c3cnn(C4CCN(Cc5cccnc5)CC4)c3n2)cc1 ?
active

Could you check what this test reported for CCn1cc(-c2ccnc3[nH]c(-c4cccc(CN(C)C)c4)cc23)c(-c2ccc(NC(=O)N(C)C)cc2)n1 ?
active
